- TARGET DESC: T1, recombinant human activated Factor VII (FVIIa) (human, UniProt P08709 61-212; P08709 213-466, ten glutamate residues of the Gla domain may be gamma-carboxylated)
- T1 construct: chains tethered by a disulfide bond; also called Factor VIIa; rFVIIa
- T1 sequence 1: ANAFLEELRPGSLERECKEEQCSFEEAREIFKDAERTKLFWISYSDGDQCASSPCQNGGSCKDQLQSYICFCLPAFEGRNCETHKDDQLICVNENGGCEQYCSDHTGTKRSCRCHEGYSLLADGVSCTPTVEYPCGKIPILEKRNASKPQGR
- T1 sequence 2: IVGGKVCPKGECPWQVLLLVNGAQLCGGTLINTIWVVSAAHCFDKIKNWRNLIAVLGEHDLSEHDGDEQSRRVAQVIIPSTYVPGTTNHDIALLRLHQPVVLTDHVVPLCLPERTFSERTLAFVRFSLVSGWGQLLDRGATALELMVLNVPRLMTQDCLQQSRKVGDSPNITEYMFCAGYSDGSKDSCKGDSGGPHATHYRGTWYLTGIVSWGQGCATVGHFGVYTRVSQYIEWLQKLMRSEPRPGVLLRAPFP
- PROTOCOL DETAILS: BLI (Fortebio)
pKd: −log10 of the molar value.
Each entry below carries its reported pKd.

BINDER	pKd
VH SEQ ID NO 610 / VL SEQ ID NO 334 (antibody, IgG4, V domains shown, humanized 11F2; IgG4 S228P/kappa) VH: QVQLQESGPGLVKPSQTLSLTCTVSGGSITSDSAWSWIRQPPGKGLEWIGYIQYSGSTNYNPSLKSRVTISVDTSKNQFSLKLSSVTAADTAVYYCARSVNYYGNSFAVGYWGQGTLVTVSS VL: EIVLTQSPATLSLSPGERATLSCRASQGISDYLHWYQQKPGQAPRLLIKYASQPATGIPARFSGSGSGTDFTLTISSLEPEDFAVYYCQNGHSFPLTFGQGTKLEIK	7.89
VH SEQ ID NO 618 / VL SEQ ID NO 326 (antibody, IgG4, V domains shown, humanized 11F2; IgG4 S228P/kappa) VH: QVQLQESGPGLVKPSQTLSLTCTVSGYSISSDSAWSWIRQFPGKGLEWIGYIQYSGSTNYNPSLKSRVTISRDTSKNQFSLKLSSVTAADTAVYYCARSVNYYGNSFAVGPWGQGTLVTVSS VL: EIVLTQSPATLSLSPGERATLSCRASQGISDYLHWYQQKPGEAPRLLIKYTSQPATGIPARFSGSGSGTDFTLTISSLEPEDFGVYYCQNGHSFPLTFGAGTKLELK	8.96
VH SEQ ID NO 594 / VL SEQ ID NO 358 (antibody, IgG4, V domains shown, humanized 11F2; IgG4 S228P/kappa) VH: QVQLQESGPGLVKPSDTLSLTCAVSGYSISSDSAWSWIRQPPGKKLEWIGYIQYSGSTNYNPSLKSRVTMSVDTSKNQFSLKLSSVTALDTAVYYCARSVNYYGNSFAVGPWGQGTLVTVSS VL: EIVLTQSPATLSLSPGERATLSCRASQGISDYLHWYQQKPGQAPRLLIKYTSQPATGIPARFSGSGSGTDFTLTISSLEPEDFAVYYCQNGHSFPLTFGQGTKLEIK	7.62
VH SEQ ID NO 562 / VL SEQ ID NO 462 (antibody, IgG4, V domains shown, humanized 11F2; IgG4 S228P/kappa) VH: QVQLQESGPGLVKPSDTLSLTCAVSGYSISSDSAWSWIRQPPGKGLEWIGYIQYSGSTNYNPSLKSRVTMSRDTSKNQFSLKLSSVTALDTAVYYCARSVNYYGNSFAVGPWGQGTLVTVSS VL: EIVLTQSPATLSLSPGERATLSCRASQGVSDYLHWYQQKPGQAPRLLIKYASQPATGIPARFSGSGSGTDFTLTISSLEPEDFAVYYCQNGHSFPLTFGAGTKLEIK	8.85
VH SEQ ID NO 538 / VL SEQ ID NO 494 (antibody, IgG4, V domains shown, humanized 11F2; IgG4 S228P/kappa) VH: QVQLQESGPGLVEPSQTLSLTCTVSGYSITSDSAWSWIRQPPGKKLEWIGYIQYSGSTNYNPSLKSRVTISRDTSKNQFSLKLSSVTAADTAVYYCARSVNYYGNSFAVGYWGQGTLVTVSS VL: EIVLTQSPATLSLSPGERATLSCRASQGVSDYLHWYQQKPGQAPRLLIKYASQPATGIPARFSGSGSGTDFTLTISSLEPEDVAVYYCQNGHSFPLTFGQGTKLEIK	8.96

Data credit: patent US20220064329A1
